test: Human liver microsome stability; format: in vitro ADME; settings: human liver microsomes, pH 7.4
property: log10 microsomal CLint at 0.99 µM (log10 of the value in µL/min/mg)
Short version: log10 scale, microsomal CLint at 0.99 µM, µL/min/mg.

Would you please look over these solved cases?
NC(=O)c1cc(Cc2ccnc(NS(=O)(=O)NCCO)c2F)c(F)c(F)c1Nc1ccc(I)cc1F [Compound B-9]; 1.04
CC1(NS(=O)(=O)Nc2nccc(Cc3cc(C(N)=O)c(Nc4ccc(C5CC5)cc4F)c(F)c3F)c2F)CCC1 [Compound A-46]; 1.36
CNS(=O)(=O)Nc1nccc(Cc2cc(C(N)=O)c(Nc3ccc4sccc4c3F)c(F)c2F)c1F [Compound H-3]; 2.17
CNS(=O)(=O)Nc1nccc(Cn2cc(C(=O)NOC)c(Nc3ccc(I)cc3F)c(C)c2=O)c1F [Compound P-7]; 1.08
CONC(=O)c1cc(Cc2cccc(NS(=O)(=O)C3(C)CC3)c2F)c(F)c(F)c1Nc1ccc(I)cc1F [Compound E-5]; 1.89
Cn1c(Nc2ccc(I)cc2F)c(C(=O)NOC(C)(C)C)cc(Cc2cccc(NS(=O)(=O)C3(C)CC3)c2F)c1=O [Compound K-12]; 2.74

Look up log10 microsomal CLint at 0.99 µM for this compound: Cn1c(Nc2ccc(I)cc2F)c(C(N)=O)cc(Cc2ccnc(NS(=O)(=O)NC3CC3)c2F)c1=O [Compound J-13]
1.59

----------
test system: Colo-205; test: Colo-205 growth-inhibiting activity; format: cell-based; conditions: Table 1, human cancer cells with BRAF mutation
property: IC50 (nM)
# value in nM; strip the unit string

Look up IC50 for this compound: CNS(=O)(=O)NCC(=O)N(Cc1cc(C(=O)NOCCO)c(Nc2ccc(I)cc2F)c(F)c1F)OC
0.4

----------
This section presents compounds with their documented pIC50 values.
target: BRAF (Homo sapiens, UniProt P15056); construct: purchased Eurofins Genomics KK; (BRAF); Thermo Fisher Scientific Inc. (MEK1); test: BRAF-inhibiting activity, time-resolved fluorescence-fluorescence resonance energy transfer assay; type: biochemical; conditions: read-out: BRAF IC50; Table 3
Sequence (P15056 417-766 limits assumed): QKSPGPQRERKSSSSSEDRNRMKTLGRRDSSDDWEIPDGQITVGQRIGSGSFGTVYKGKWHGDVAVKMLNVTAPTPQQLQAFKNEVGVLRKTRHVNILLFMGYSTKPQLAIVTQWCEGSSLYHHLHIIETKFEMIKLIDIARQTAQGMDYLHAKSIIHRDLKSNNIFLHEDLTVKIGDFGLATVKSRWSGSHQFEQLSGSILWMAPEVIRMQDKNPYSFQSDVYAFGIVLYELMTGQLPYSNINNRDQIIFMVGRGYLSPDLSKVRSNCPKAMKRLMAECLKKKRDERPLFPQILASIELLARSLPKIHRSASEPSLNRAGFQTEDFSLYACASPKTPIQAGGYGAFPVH
Schema: pIC50 number; meaning minus log10 of the concentration expressed in molar units.

CC1(NS(=O)(=O)Nc2nccc(Cc3cc(C(=O)NC4CC4)c(Nc4ccc(I)cc4F)c(F)c3F)c2F)CCC1; 7.68
CCNS(=O)(=O)Nc1cccc(Cc2cc(C(N)=O)c(Nc3ccc(I)cc3F)n(C)c2=O)c1F; 8.40
CCS(=O)(=O)Nc1cccc(Cc2cc(C(=O)NC3CC3)c(Nc3ccc(I)cc3F)n(C)c2=O)c1F; 7.85
CNS(=O)(=O)Nc1nccc(Cc2cc(C(=O)NC3CC3)c(Nc3ccc(I)cc3F)n(C)c2=O)c1F; 8.10
COCCNS(=O)(=O)Nc1nccc(Cc2cc(C(N)=O)c(Nc3ccc(I)cc3F)cc2F)c1F; 8.40
CCNS(=O)(=O)Nc1cccc(Cc2cc(C(=O)NC3CC3)c(Nc3ccc(I)cc3F)n(C)c2=O)c1F; 8.05
NC(=O)c1cc(Cc2ccnc(NS(=O)(=O)NC3CC3)c2F)c(F)c(F)c1Nc1ccc(I)cc1Cl; 8.52
CNS(=O)(=O)Nc1nccc(Cc2cc(C(N)=O)c(Nc3ccc(C4CC4)cc3F)n(C)c2=O)c1F; 7.96
CNC(=O)c1cc(Cc2ccnc(NS(=O)(=O)NC)c2F)c(F)c(F)c1Nc1ccc(I)cc1F; 8.30
NC(=O)c1cc(Cc2ccnc(NS(=O)(=O)NCCO)c2F)c(F)c(F)c1Nc1ccc(I)cc1F; 8.40

Look up pIC50 for this compound: NC(=O)c1cc(Cc2ccnc(NS(N)(=O)=O)c2F)c(F)c(F)c1Nc1ccc(I)cc1F
7.96

Look up pIC50 for this compound: Cn1c(Nc2ccc(I)cc2F)c(C(N)=O)cc(Cc2ccnc(NS(=O)(=O)NC3CC3)c2F)c1=O
8.40

Look up pIC50 for this compound: CCS(=O)(=O)Nc1nccc(Cc2cc(C(=O)NOC)c(Nc3ccc(I)cc3F)c(F)c2F)c1F
7.92

Look up pIC50 for this compound: CONC(=O)c1cc(Cc2cccc(NS(C)(=O)=O)c2F)c(F)c(F)c1Nc1ccc(I)cc1F
8.22

Look up pIC50 for this compound: CCS(=O)(=O)Nc1nccc(Cn2cc(C(=O)NOC)c(Nc3ccc(I)cc3F)c(C)c2=O)c1F
7.96

----------
assay: Human liver microsome stability; type: in vitro ADME; conditions: human liver microsomes, pH 7.4
Rule: microsomal CLint at 0.99 µM below 20 µL/min/mg gives y, anything at or above gives n.

Determine if CS(=O)(=O)Nc1nccc(Cc2cc(C(=O)NC3CC3)c(Nc3ccc(I)cc3F)c(F)c2F)c1F [Compound B-14] shows microsomal CLint at 0.99 µM strictly lower than 20 µL/min/mg.
y

Determine if NC(=O)c1cc(Cc2cccc(NS(N)(=O)=O)c2F)c(F)c(F)c1Nc1ccc(I)cc1F [Compound E-8] shows microsomal CLint at 0.99 µM strictly lower than 20 µL/min/mg.
y

Determine if CC(C)NS(=O)(=O)Nc1nccc(Cc2cc(C(N)=O)c(Nc3ccc(I)cc3F)c(F)c2F)c1F [Compound A-31] shows microsomal CLint at 0.99 µM strictly lower than 20 µL/min/mg.
y

Determine if CCS(=O)(=O)Nc1cccc(Cc2cc(C(=O)NOC(C)(C)C)c(Nc3ccc(I)cc3Cl)c(F)c2F)c1F [Compound E-10] shows microsomal CLint at 0.99 µM strictly lower than 20 µL/min/mg.
n

Determine if COCCNS(=O)(=O)Nc1nccc(Cc2cc(C(=O)NOC)c(Nc3ccc(I)cc3F)n(C)c2=O)c1F [Compound J-9] shows microsomal CLint at 0.99 µM strictly lower than 20 µL/min/mg.
n

Determine if CC(C)CS(=O)(=O)Nc1cccc(Cc2cc(C(N)=O)c(Nc3ccc(I)cc3F)c(F)c2F)c1F [Compound E-17] shows microsomal CLint at 0.99 µM strictly lower than 20 µL/min/mg.
n

Determine if O=C(NC1CC1)c1cc(Cc2ccnc(NS(=O)(=O)NC3CC3)c2F)c(F)c(F)c1Nc1ccc(I)cc1Cl [Compound B-12] shows microsomal CLint at 0.99 µM strictly lower than 20 µL/min/mg.
n

----------
target: BRAF (Homo sapiens, UniProt P15056); construct: purchased Eurofins Genomics KK; (BRAF); Thermo Fisher Scientific Inc. (MEK1); assay: BRAF-inhibiting activity, time-resolved fluorescence-fluorescence resonance energy transfer assay; assay type: biochemical; details: read-out: BRAF IC50; Table 3
property: pIC50
Schema: pIC50 number; meaning minus log10 of the concentration expressed in molar units.

Would you please look over these solved cases?
CS(=O)(=O)Nc1cccc(Cc2cc(C(N)=O)c(Nc3ccc(I)cc3F)c(F)c2F)c1F [Compound E-13]; 9.00
Cn1c(Nc2ccc(I)cc2F)c(C(N)=O)cc(Cc2ccnc(NS(=O)(=O)NC3(C)CCC3)c2F)c1=O [Compound J-15]; 7.92
CNS(=O)(=O)Nc1nccc(Cc2cc(C(=O)NC3CC3)c(Nc3ccc(I)cc3F)c(F)c2F)c1F [Compound A-2]; 8.52
Cn1c(Nc2ccc(I)cc2F)c(C(=O)NC2CC2)cc(Cc2cccc(NS(=O)(=O)NC3CC3)c2F)c1=O [Compound K-5]; 8.05
CNS(=O)(=O)Nc1nccc(Cc2cc(C(N)=O)c(Nc3ccc(I)cc3F)cc2F)c1F [Compound I-1]; 8.52

Look up pIC50 for this compound: CNS(=O)(=O)Nc1nccc(Cc2cc(C(=O)NOCCOC)c(Nc3ccc(I)cc3F)c(F)c2F)c1F [Compound B-2]
8.52

Look up pIC50 for this compound: CNS(C)(=O)=Nc1cc(Cc2cc(C(N)=O)c(Nc3ccc(I)cc3F)c(F)c2F)ccn1 (stereo not shown) [Compound C-4]
7.64

----------
assay: Human liver microsome stability; type: in vitro ADME; settings: human liver microsomes, pH 7.4
This section presents molecules with their documented microsomal CLint at 0.99 µM values.
# value in µL/min/mg; strip the unit string

NS(=O)(=O)Nc1nccc(Cc2cc(C(=O)NC3CC3)c(Nc3ccc(I)cc3F)c(F)c2F)c1F; 10
CCNS(=O)(=O)Nc1cccc(Cc2cc(C(N)=O)c(Nc3ccc(I)cc3F)n(C)c2=O)c1F; 234

Look up microsomal CLint at 0.99 µM for this molecule: CNS(=O)(=O)Nc1cccc(Cc2cc(C(=O)NC3CC3)c(Nc3ccc(I)cc3F)n(C)c2=O)c1F
129

Look up microsomal CLint at 0.99 µM for this molecule: CC(C)CNS(=O)(=O)Nc1nccc(Cc2cc(C(N)=O)c(Nc3ccc(I)cc3F)c(F)c2F)c1F
17

Look up microsomal CLint at 0.99 µM for this molecule: CCS(=O)(=O)Nc1cccc(Cc2cc(C(N)=O)c(Nc3ccc(I)cc3Cl)c(F)c2F)c1F
11

Look up microsomal CLint at 0.99 µM for this molecule: CCCNS(=O)(=O)Nc1nccc(Cn2cc(C(N)=O)c(Nc3ccc(I)cc3F)c(F)c2=O)c1F
11

Look up microsomal CLint at 0.99 µM for this molecule: Cn1c(Nc2ccc(I)cc2F)c(C(N)=O)cc(Cc2ccnc(NS(=O)(=O)NC3(C)CCC3)c2F)c1=O
225
